Provide the reported SPOT peptide array binding signal intensity of each item.
# tgt: CaMyo5
# assay.comment: SPOT peptide array binding signal intensity (averaged, normalized) (arbitrary units (background-subtracted, floor 0; scale differs between SH3 domains)); higher = stronger binding of the SH3 domain to the peptide

Read off the recorded SPOT peptide array binding signal intensity for NPTKSPPPPPSPSTM
48

Read off the recorded SPOT peptide array binding signal intensity for AVPPPPPPPPLPESL
29

Read off the recorded SPOT peptide array binding signal intensity for PSPSSSPPPIPKTAN
386

Read off the recorded SPOT peptide array binding signal intensity for IAPIPMPKPNPTHIS
3

Read off the recorded SPOT peptide array binding signal intensity for GAGERPRLVPRPINV
6.5

Read off the recorded SPOT peptide array binding signal intensity for NRARYLPQNPDIIAG
4.25

Read off the recorded SPOT peptide array binding signal intensity for RKNRAPPQRPRFNRD
10.2

Read off the recorded SPOT peptide array binding signal intensity for PSRRAPLQLPQLVNK
≤ 0

Read off the recorded SPOT peptide array binding signal intensity for LLLLFVPDSPYDPAI
6.25

Read off the recorded SPOT peptide array binding signal intensity for KRNRLKILLPFLEQS
3

Read off the recorded SPOT peptide array binding signal intensity for PKRRAPPPVPKKPSS
2

Read off the recorded SPOT peptide array binding signal intensity for QTREPNEPPPPSPAM
108

Read off the recorded SPOT peptide array binding signal intensity for TTAPALPSLPPPPLL
1950

Read off the recorded SPOT peptide array binding signal intensity for KRRTSLFPWLHKPGI
0.25

Read off the recorded SPOT peptide array binding signal intensity for APERAVPILPPRNNV
≤ 0

Sourced from the supplement of paper PMC4466140
